Where these numbers come from: patent US20120208204A1

- Test system: SGK2
- protocolNotes: Inhibition of kinase activity by SGK2 inhibitory compounds, single concentration
- Type: biochemical
- testParameters: 10 μM compound
quantityName: % Inhibition at 10 μM (%)

>  <molecule>
Cc1c2ccccc2nc2c(F)c(NCCO)c(F)c(F)c12 [LDN-0071563]

>  <% Inhibition at 10 μM, %>
88

$$$$
>  <molecule>
CN(C)c1ccc(-c2nc3cc(N)ccc3[nH]2)cc1 [LDN-0060537]

>  <% Inhibition at 10 μM, %>
72

$$$$
>  <molecule>
Oc1ccc(-c2nc(-c3ccc4sc5ccccc5c4c3)c(-c3ccccc3)[nH]2)cc1O [LDN-0044885]

>  <% Inhibition at 10 μM, %>
70

$$$$
>  <molecule>
N#Cc1c(N)nc(SCC(=O)c2ccc(O)c(O)c2)c(C#N)c1-c1ccc(O)cc1 [LDN-0028574]

>  <% Inhibition at 10 μM, %>
91

$$$$
>  <molecule>
O=c1oc2c(O)c(O)cc3c(=O)oc4c(O)c(O)cc1c4c23 [LDN-0097519]

>  <% Inhibition at 10 μM, %>
85

$$$$
>  <molecule>
Cc1c2ccccc2nc2c(F)c(NC(C)C)c(F)c(F)c12 [LDN-0071567]

>  <% Inhibition at 10 μM, %>
88

$$$$
>  <molecule>
Oc1ccc(-c2csc(NCc3ccco3)n2)cc1 [LDN-0071858]

>  <% Inhibition at 10 μM, %>
65

$$$$
>  <molecule>
Nc1ccc2[nH]c(C=Cc3ccc(Cl)cc3)nc2c1 [LDN-0060498]

>  <% Inhibition at 10 μM, %>
68

$$$$
>  <molecule>
CN(C)c1ccc2nc(SCC(=O)c3ccccc3)sc2c1 [LDN-0073108]

>  <% Inhibition at 10 μM, %>
70

$$$$
